molecular target: F protein of hMPV virus strain B1 (human metapneumovirus (hMPV) B1); test: cell-based or functional assay
Field 'label' (enum: true / false). Set to true when EC50 (nM), plaque reduction, hMPV B1 on Vero cells is strictly under 7 nM; else false.

DEFDKKKIEEVNKKIEESLKKIEESDKKLEEVEAAAKK (N-terminal acetyl (Ac-); C-terminal lysine side chain carries cholesteryl hemisuccinate, K(Chol); C-terminal amide (-NH2)) [Compound 22] ... false
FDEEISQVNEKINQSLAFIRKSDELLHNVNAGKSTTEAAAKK (N-terminal acetyl (Ac-); C-terminal lysine side chain carries cholesteryl hemisuccinate, K(Chol); C-terminal amide (-NH2)) [Compound 26] ... true
YDELVFDASQVNEKINQSLEKIRKSDELLHNVGSGSGK (N-terminal acetyl (Ac-); C-terminal lysine side chain carries cholesteryl hemisuccinate, K(Chol); C-terminal amide (-NH2)) [Compound 25] ... false
DEFDKKIEEVNKKIEESLKKIEESDKKLEEVNEAAAKK (N-terminal acetyl (Ac-); C-terminal lysine side chain carries cholesteryl hemisuccinate, K(Chol); C-terminal amide (-NH2)) [Compound 14] ... true
YDELVFDASQVNEKINQSLEKIRKSDELLHNVEAAAKK (N-terminal acetyl (Ac-); C-terminal lysine side chain carries cholesteryl hemisuccinate, K(Chol); C-terminal amide (-NH2)) [Compound 30] ... false
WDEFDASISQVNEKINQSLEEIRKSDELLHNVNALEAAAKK (N-terminal acetyl (Ac-); C-terminal lysine side chain carries cholesteryl hemisuccinate, K(Chol); C-terminal amide (-NH2)) [Compound 38] ... false
WDEFDASIEEVNRRIEESLRRIEESDRRLEEVEAAAKK (N-terminal acetyl (Ac-); C-terminal lysine side chain carries cholesteryl hemisuccinate, K(Chol); C-terminal amide (-NH2)) [Compound 43] ... false
WDEFDKKIEEVNKKIEESLKKIEESDKKLEEVNAEAAAKK (N-terminal acetyl (Ac-); C-terminal lysine side chain carries cholesteryl hemisuccinate, K(Chol); C-terminal amide (-NH2)) [Compound 40] ... false
WDEFDKKIEEVNKKIEESLKKIEESDKKLEAAAKK (N-terminal acetyl (Ac-); C-terminal lysine side chain carries cholesteryl hemisuccinate, K(Chol); C-terminal amide (-NH2)) [Compound 13] ... true
